TEST_PROTOCOL: chemical genetic growth profiling, strain panel (AID 1159580);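 note: tested at 20 µM; growth read once vehicle control cultures reached saturation at 30 °C; 1 = growth at the plate median or of vehicle wells; lower values mean less growth of the strain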
CONDITIONS: S. cerevisiae deletion strains, growth OD, locus YEL037C, strain rad23, active compounds read low
In all, about 5,500 compounds went through this assay and about 2,000 (36%) were called active. About 18% were inconclusive and are not listed. Some of the results follow.

COMPOUND	normalized growth
COc1cc2c(cc1OC)C(=O)OC2	0.994 (inactive)
CC1=C(CC(=O)O)c2cc(F)ccc2/C1=C\c1ccc(S(C)=O)cc1 (stereo not given)	1.02 (inactive)
N=c1ccn2c(n1)O[C@@H]1C2O[C@H](CO)[C@H]1O (stereo not given in full)	0.991 (inactive)
COc1ccc2c(c1)OCc1c-2oc2cc(OC)ccc12	0.986 (inactive)
CC(N)C(=O)OC(C)(C)Cc1ccc(Cl)cc1 (stereo not given)	1.01 (inactive)
CC1=C(/C=C/C(C)=C/C=C/C(C)=C/C=C/C=C(C)/C=C/C=C(C)/C=C/C2=C(C)C(=O)C(O)CC2(C)C)C(C)(C)CC(O)C1=O (stereo not given)	1.05 (inactive)
C=C1C2CC[C@H]3[C@]4(C)C[C@H](OC5OC(CO)C(OS(=O)(=O)O)C(OS(=O)(=O)O)C5OC(=O)CC(C)C)C[C@@H](C(=O)O)[C@H]4CC[C@]3(C2)[C@H]1O (stereo not given in full)	1.01 (inactive)
COc1ccc2c(C)cc(=O)oc2c1	0.973 (inactive)
ClC1=C(Cl)C2(Cl)C3C4C=CC(C4)C3C1(Cl)C2(Cl)Cl (stereo not given)	1 (inactive)
C=C(C)C1CNC(C(=O)O)C1CC(=O)O (stereo not given)	0.988 (inactive)

Source: PubChem BioAssay AID1159580
